Target: HSP110:STAT3 complex (Homo sapiens)
Construct: disrupting HSP110:STAT3 complex within the cell using human colorectal SW480 cancer cells; endogenous in cells; host or cells: SW480 cells carrying control shRNA (shCtrl); sh110 cells as HSP110-depleted control
Sequence (Q92598 2-858 limits assumed, one chain of several): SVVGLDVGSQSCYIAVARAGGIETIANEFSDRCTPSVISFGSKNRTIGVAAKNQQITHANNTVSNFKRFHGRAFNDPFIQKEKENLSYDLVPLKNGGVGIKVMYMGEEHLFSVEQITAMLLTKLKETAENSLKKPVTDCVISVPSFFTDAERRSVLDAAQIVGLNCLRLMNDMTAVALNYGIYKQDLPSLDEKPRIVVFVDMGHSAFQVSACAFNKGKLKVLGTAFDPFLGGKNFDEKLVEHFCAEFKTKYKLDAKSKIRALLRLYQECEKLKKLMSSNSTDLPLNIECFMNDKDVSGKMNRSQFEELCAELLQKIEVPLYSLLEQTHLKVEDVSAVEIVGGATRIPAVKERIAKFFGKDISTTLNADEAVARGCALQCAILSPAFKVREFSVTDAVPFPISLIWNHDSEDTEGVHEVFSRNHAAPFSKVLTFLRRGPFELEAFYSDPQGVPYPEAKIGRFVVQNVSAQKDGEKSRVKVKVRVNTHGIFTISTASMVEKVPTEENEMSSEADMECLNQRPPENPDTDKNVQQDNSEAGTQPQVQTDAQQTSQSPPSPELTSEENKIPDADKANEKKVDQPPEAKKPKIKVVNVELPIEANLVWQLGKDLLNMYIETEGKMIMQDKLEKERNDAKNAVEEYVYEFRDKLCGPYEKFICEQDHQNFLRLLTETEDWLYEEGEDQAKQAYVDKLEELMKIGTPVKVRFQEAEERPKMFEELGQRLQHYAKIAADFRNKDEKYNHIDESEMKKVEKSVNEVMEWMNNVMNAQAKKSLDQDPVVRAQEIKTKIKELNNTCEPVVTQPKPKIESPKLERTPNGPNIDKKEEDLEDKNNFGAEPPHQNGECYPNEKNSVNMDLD
Experiment: Immunoprecipitation of HSP110:STAT3 complex in SW480 cells
Type: cell-based
Details: SW480 shCtrl cells, 10 μM, 48 h
Text: […] FIG. 2B: Quantification of HSP110:STAT3 disruption in percentage considering the total amount of HSP110 protein normalized by the signal intensity of the Ig band of FIG. 1 panel A. (Ordinate: Percentage of STAT3:HSP110 protein interaction (scale 50)). […]
endpoint: percentage of interaction of STAT3:HSP110

INSERT INTO results (compound, testresult) VALUES
  ('COc1ccc(-c2cnc(-c3cnc(-c4ccc(OC)c(OC)c4)c(C)c3)c(/C=C/c3ccccc3)c2)cc1OC [compound 51]', 'not decrease'),
  ('COc1cc(-c2cnc(-c3cnc(-c4cc(OC)c(OC)c(OC)c4)c(C)c3)c(/C=C/c3ccccc3)c2)cc(OC)c1OC [compound 52]', '5%'),
  ('N#CCc1cccc(-c2cnc(Cl)c(/C=C/c3ccccc3)c2)c1 [compound 61, reference compound]', 'not decrease'),
  ('COc1ccc(-c2ncc(-c3ncc(-c4cc(OC)c(OC)c(OC)c4)cc3/C=C/c3ccccc3)cc2C)cc1OC [compound 33]', '20%');

====

Target: human protein HSP110 (Homo sapiens, UniProt Q92598)
Construct: DNA coding the NBD-HSP110 (from human-HSP110)
Sequence (Q92598 whole entry, looked up): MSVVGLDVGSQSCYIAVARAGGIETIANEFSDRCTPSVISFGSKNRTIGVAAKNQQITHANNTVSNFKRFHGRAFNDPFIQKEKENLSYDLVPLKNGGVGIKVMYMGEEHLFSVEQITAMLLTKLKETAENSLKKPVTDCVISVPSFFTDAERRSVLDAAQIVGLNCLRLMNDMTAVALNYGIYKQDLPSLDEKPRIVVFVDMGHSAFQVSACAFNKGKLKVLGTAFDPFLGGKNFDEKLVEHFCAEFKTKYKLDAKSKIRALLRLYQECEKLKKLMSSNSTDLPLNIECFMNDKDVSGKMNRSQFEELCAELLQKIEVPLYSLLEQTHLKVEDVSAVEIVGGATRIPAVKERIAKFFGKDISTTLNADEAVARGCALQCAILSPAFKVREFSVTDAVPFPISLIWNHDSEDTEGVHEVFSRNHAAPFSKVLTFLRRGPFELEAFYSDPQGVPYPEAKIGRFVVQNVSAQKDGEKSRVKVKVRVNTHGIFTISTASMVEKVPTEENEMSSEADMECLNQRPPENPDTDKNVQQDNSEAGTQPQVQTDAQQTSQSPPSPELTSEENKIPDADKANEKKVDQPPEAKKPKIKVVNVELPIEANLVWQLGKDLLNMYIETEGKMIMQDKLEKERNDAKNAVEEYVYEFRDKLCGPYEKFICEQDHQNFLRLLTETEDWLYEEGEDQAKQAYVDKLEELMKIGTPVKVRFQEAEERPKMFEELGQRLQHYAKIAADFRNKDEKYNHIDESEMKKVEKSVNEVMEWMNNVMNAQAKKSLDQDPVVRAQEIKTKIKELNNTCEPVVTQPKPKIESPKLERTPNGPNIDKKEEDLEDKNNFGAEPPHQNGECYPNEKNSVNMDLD
Experiment: HSP110 anti-aggregation function (luciferase substrate test)
Conditions: human HSP110 1.5 μM with firefly luciferase, 30 min at 42° C.; read-out: IC50 of HSP110 anti-aggregating activity
Protocol: Anti-aggregation function of HSP110 was evaluated as described by O H et al (The Journal of biological chemistry 274, 15712-15718 (1999)). […] Compounds of the present invention were added in reaction buffer to achieve the indicated concentrations and the final DMSO concentration was held constant at 1%. […] The bioluminescence was reading with Envision Perkin Elmer. […]
endpoint: IC50 (µM)
Give bare numbers, in µM.

Use the examples below as a reference point.
INSERT INTO results (molecule, testresult) VALUES
  ('COc1cc(-c2cnc(-c3cnc(-c4cc(OC)c(OC)c(OC)c4)c(C)c3)c(/C=C/c3ccccc3)c2)cc(OC)c1OC [compound 52]', 86),
  ('N#CCc1cccc(-c2cnc(Cl)c(/C=C/c3ccccc3)c2)c1 [compound 61, reference compound]', 228);

Inquiry: Quick one: IC50 of COc1ccc(-c2ncc(-c3ncc(-c4cc(OC)c(OC)c(OC)c4)cc3/C=C/c3ccccc3)cc2C)cc1OC [compound 33] ?
Reply text: 58.3
